# assay.system: endogenous human glucagon-like peptide 1 receptor (GLP-1R) (Homo sapiens)
# Construct: endogenous human glucagon-like peptide 1 receptor (GLP-1R) in a pancreatic insulinoma cell line
# Sequence (P43220 24-463): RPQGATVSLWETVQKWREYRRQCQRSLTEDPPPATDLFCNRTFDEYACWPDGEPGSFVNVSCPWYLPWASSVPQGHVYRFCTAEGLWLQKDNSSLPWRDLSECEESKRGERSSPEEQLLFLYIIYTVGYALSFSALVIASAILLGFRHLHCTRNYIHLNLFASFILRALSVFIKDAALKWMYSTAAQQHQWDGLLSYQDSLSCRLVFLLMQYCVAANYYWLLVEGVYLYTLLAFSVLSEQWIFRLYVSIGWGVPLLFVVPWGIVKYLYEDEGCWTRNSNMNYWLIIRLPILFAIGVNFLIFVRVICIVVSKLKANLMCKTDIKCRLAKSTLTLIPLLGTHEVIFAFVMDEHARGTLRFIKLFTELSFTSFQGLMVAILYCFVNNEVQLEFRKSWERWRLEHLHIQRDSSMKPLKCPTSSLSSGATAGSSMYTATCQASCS
# measurement.protocol: EndoC cAMP Accumulation Assay
# measurement.setup: EndoC-βH1 human pancreatic β cell line; HTRF cAMP assay
pEC50: −log10 of the molar value.
experimental.readout: pEC50

Please review the following examples before continuing.
C[C@]1(c2ccc(Cl)cc2F)Oc2cccc(N3CCN(Cc4nc5c(Cl)cc(C(=O)O)cc5n4C[C@@H]4CCO4)[C@H]4COC[C@H]43)c2O1 (single isomer, unassigned) [Example 15d]
6.80
C[C@]1(c2ccc(Cl)cn2)Oc2cccc(N3CCN(Cc4nc5c(F)cc(C(=O)O)cc5n4C[C@@H]4CCO4)[C@H]4COC[C@H]43)c2O1 (single isomer, unassigned) [Example 9b]
6.18
COc1cc(C(=O)O)cc2c1nc(CN1CCN(c3cccc4c3O[C@@](C)(c3ccc(Cl)cc3F)O4)[C@@H]3COC[C@@H]31)n2C[C@@H]1CCO1 (single isomer, unassigned) [Example 3b]
6.57
C[C@]1(c2ccc(Cl)cn2)Oc2cccc(N3CCN(Cc4nc5ccc(C(=O)O)cc5n4C[C@@H]4CCO4)[C@H]4COC[C@H]43)c2O1 (single isomer, unassigned) [Example 5d]
5.68
C[C@]1(c2ccc(Cl)cc2F)Oc2cccc(N3CCN(Cc4nc5c(F)cc(C(=O)O)cc5n4Cc4cocn4)[C@H]4COC[C@H]43)c2O1 (single isomer, unassigned) [Example 20b]
8.00
C[C@]1(c2ccc(Cl)cc2F)Oc2cccc(N3CCN(Cc4nc5c(F)cc(C(=O)O)cc5n4C[C@@H]4CCO4)[C@H]4COC[C@H]43)c2O1 (single isomer, unassigned) [Example 16a]
8.64
C[C@]1(c2ccc(Cl)cc2F)Oc2cccc(N3CCN(Cc4nc5c(Cl)cc(C(=O)O)cc5n4C[C@@H]4CCO4)[C@H]4COC[C@H]43)c2O1 (single isomer, unassigned) [Example 15b]
6.92
C[C@]1(c2ccc(Cl)cc2F)Oc2cccc(N3CCN(Cc4nc5c(F)cc(C(=O)O)cc5n4C[C@@H]4CCO4)[C@H]4COC[C@H]43)c2O1 (single isomer, unassigned) [Example 16d]
6.57

P. COc1cc(C(=O)O)cc2c1nc(CN1CCN(c3cccc4c3O[C@@](C)(c3ccc(Cl)cc3F)O4)[C@@H]3COC[C@@H]31)n2C[C@@H]1CCO1 (single isomer, unassigned) [Example 3a]
Q. C[C@]1(c2ccc(Cl)cn2)Oc2cccc(N3CCN(Cc4nc5c(Cl)cc(C(=O)O)cc5n4C[C@@H]4CCO4)[C@H]4COC[C@H]43)c2O1 (single isomer, unassigned) [Example 14d]
**Query** # min-compare on pEC50 between P and Q Refer to your chosen entry by its label in the reply.
**Result** Q
(Q: 6.32, P: 8.77)
